Items are presented alongside their recorded Survival.
Test system: Plasmodium berghei
Assay: Antimalarial activity against Plasmodium berghei KBG 173 infected in mouse assessed as increase of mean survival time at 320 mg/kg
Format: functional
// return numeric value only (unit: days, not printed)

**Q:** Entry C/C(=N/NC(=S)N(C)C1CCCC1)c1ccccn1 : reported Survival = ?
**A:** 6

**Q:** May I ask what Survival has been recorded for C/C(=N/NC(=S)N1C(C)CCC1C)c1ccccn1 (stereo not drawn) ?
**A:** 0

**Q:** # lookup: Survival of C/C(=N/NC(=S)N1CC(C)CC(C)C1)c1ccccn1 (stereo not drawn)
**A:** 0

**Q:** Please look up its Survival: C/C(=N/NC(=S)N1CCN(c2ccccc2)CC1)c1ccccn1
**A:** -0.1

**Q:** Fill blank: measured Survival of the molecule C/C(=N/NC(=S)N1CC2CCC(CC2)C1)c1ccccn1 is ____.
**A:** 0.2

**Q:** Return reported Survival; argument: C/C(=N/NC(=S)N1CCN(c2ccccn2)CC1)c1ccccn1
**A:** 0.7

**Q:** Please give the measured Survival for this molecule: C/C(=N/NC(=S)N(C)CCc1ccccn1)c1ccccn1
**A:** 6.7

**Q:** For CCCCN(C)C(=S)N/N=C(/C)c1ccccn1 , what is its reported Survival?
**A:** 0

* * *

Test system: Mus musculus
Experiment: Toxicity in Plasmodium berghei KBG 173 infected mouse at 320 mg/kg
Type: organism-based
Design: dose 320 mg/kg
Details: in vivo
Measurement label: Activity

Here's what some known entries look like.
>  <Molecule>
C/C(=N/NC(=S)N(C)CCc1ccccn1)c1ccccn1

>  <Measurement label>
Activity

>  <Test result>
Toxic

$$$$
>  <Molecule>
C/C(=N/NC(=S)N1CC(C)CC(C)C1)c1ccccn1 (stereo not given)

>  <Measurement label>
Activity

>  <Test result>
Toxic

$$$$
>  <Molecule>
CCCCN(C)C(=S)N/N=C(/C)c1ccccn1

>  <Measurement label>
Activity

>  <Test result>
Toxic

$$$$
>  <Molecule>
C/C(=N/NC(=S)N(C)Cc1ccccc1)c1ccccn1

>  <Measurement label>
Activity

>  <Test result>
Toxic

$$$$
>  <Molecule>
C/C(=N/NC(=S)N(C)C1CCCC1)c1ccccn1

>  <Measurement label>
Activity

>  <Test result>
Toxic

$$$$
>  <Molecule>
C/C(=N/NC(=S)N1CCN(c2ccccn2)CC1)c1ccccn1

>  <Measurement label>
Activity

>  <Test result>
Toxic

$$$$
>  <Molecule>
C/C(=N/NC(=S)N1CCN(c2ccccc2)CC1)c1ccccn1

>  <Measurement label>
Activity

>  <Test result>
Toxic

$$$$
>  <Molecule>
C/C(=N/NC(=S)N1CCN(c2cccc(C(F)(F)F)c2)CC1)c1ccccn1

>  <Measurement label>
Activity

>  <Test result>
Toxic

$$$$
>  <Molecule>
C/C(=N/NC(=S)N1CCCCCC1)c1ccccn1

>  <Measurement label>
Activity

>  <Test result>
Toxic

$$$$

We now examine a further molecule.
**Q:** Data request, read-out Activity, for C/C(=N/NC(=S)N1C(C)CCC1C)c1ccccn1 (stereo not given)
**A:** Toxic

* * *

System: Mus musculus
Assay: Toxicity in Plasmodium berghei KBG 173 infected mouse at 640 mg/kg
Assay type: organism-based
Design: dose 640 mg/kg
Conditions: in vivo
Measurement label: Activity

Some molecules with known Activity results, for comparison:
>  <Molecule>
C/C(=N/NC(=S)N1CCC(O)CC1)c1ccccn1

>  <Activity>
Toxic

$$$$
>  <Molecule>
C/C(=N/NC(=S)N(C)C1CCCCCCC1)c1ccccn1

>  <Activity>
Toxic

$$$$
>  <Molecule>
C/C(=N/NC(=S)N1CCC1)c1ccccn1

>  <Activity>
Toxic

$$$$
>  <Molecule>
C/C(=N/NC(=S)N1CCC2(CC1)OCCO2)c1ccccn1

>  <Activity>
Toxic

$$$$
>  <Molecule>
C/C(=N/NC(=S)N(C)CCc1ccccn1)c1ccccn1

>  <Activity>
Toxic

$$$$
>  <Molecule>
C/C(=N/NC(=S)N(C)Cc1ccccc1)c1ccccn1

>  <Activity>
Toxic

$$$$

**Q:** Which measured Activity value corresponds to C/C(=N/NC(=S)N(C)CC(O)C(O)C(O)C(O)CO)c1ccccn1 (stereo not given) ?
**A:** Toxic

**Q:** Name the recorded Activity for C/C(=N/NC(=S)N1CCc2ccccc21)c1ccccn1 .
**A:** Toxic

**Q:** // Activity lookup, key: C/C(=N/NC(=S)N1CCCCCC1)c1ccccn1
**A:** Toxic

* * *

Tested on: Plasmodium berghei
Assay: Antimalarial activity against Plasmodium berghei KBG 173 infected in mouse assessed as increase of mean survival time at 80 mg/kg
Type: functional
Measurement label: Survival (days)
Record the value in days, omitting the unit from your answer.

**Q:** Recorded Survival of C/C(=N/NC(=S)N1C(C)CCCC1C)c1ccccn1 (centres undefined) , please.
**A:** 1.6

**Q:** Dear colleague, I am looking for the recorded Survival of the following compound: C/C(=N/NC(=S)N1CCC(Cc2ccccc2)CC1)c1ccccn1
**A:** 2.8

**Q:** Param item = CCCCN(C)C(=S)N/N=C(/C)c1ccccn1 ; retrieve measured Survival.
**A:** 8.1

**Q:** # input compound: C/C(=N/NC(=S)N(C)CCc1ccccn1)c1ccccn1 ; wanted: its Survival
**A:** 3.3

**Q:** I have this compound here, C/C(=N/NC(=S)N1CC=C(c2ccccc2)CC1)c1ccccn1 , and I need its recorded Survival.
**A:** 2

**Q:** Fill in the blank: the reported Survival of C/C(=N/NC(=S)N1CCN(c2cccc(C(F)(F)F)c2)CC1)c1ccccn1 is ____.
**A:** 2.4

* * *

Tested on: Plasmodium berghei
Assay: Antimalarial activity against Plasmodium berghei KBG 173 infected in mouse assessed as cured animal from parasite infection at 640 mg/kg
Format: functional, organism-based
Parameters: dose 640 mg/kg
Active and inactive are the calls of the source. No cut-off for these calls is given here.
Measurement label: Activity

>  <Molecule>
C/C(=N/NC(=S)N1C(C)CCCC1C)c1ccccn1 (stereo not drawn)

>  <Test result>
Active

$$$$
>  <Molecule>
CCN(CC)C(=S)N/N=C(/C)c1ccccn1

>  <Test result>
Active

$$$$
>  <Molecule>
CCOC(=O)N1CCN(C(=S)N/N=C(/C)c2ccccn2)CC1

>  <Test result>
Active

$$$$

* * *

System: Plasmodium berghei
Assay: Antimalarial activity against Plasmodium berghei KBG 173 infected in mouse assessed as increase of mean survival time at 80 mg/kg
Format: functional
Measurement label: Survival (days)
All answers are understood in days, so give the number only.

Here's what some known entries look like.
>  <Smiles representation>
C/C(=N/NC(=S)N(C)C1CCCCCCC1)c1ccccn1

>  <Survival [days]>
9.6

$$$$
>  <Smiles representation>
C/C(=N/NC(=S)N1CCN(Cc2ccccc2)CC1)c1ccccn1

>  <Survival [days]>
4.4

$$$$

# ---- query compound ----
**Q:** Please report the recorded Survival for C/C(=N/NC(=S)N1CCN(c2ccccc2)CC1)c1ccccn1 .
**A:** 11.7
